Target: TRPV3 L642A (Mus musculus, UniProt Q8K424, L642A)
Sequence (Q8K424 1-791 L642A): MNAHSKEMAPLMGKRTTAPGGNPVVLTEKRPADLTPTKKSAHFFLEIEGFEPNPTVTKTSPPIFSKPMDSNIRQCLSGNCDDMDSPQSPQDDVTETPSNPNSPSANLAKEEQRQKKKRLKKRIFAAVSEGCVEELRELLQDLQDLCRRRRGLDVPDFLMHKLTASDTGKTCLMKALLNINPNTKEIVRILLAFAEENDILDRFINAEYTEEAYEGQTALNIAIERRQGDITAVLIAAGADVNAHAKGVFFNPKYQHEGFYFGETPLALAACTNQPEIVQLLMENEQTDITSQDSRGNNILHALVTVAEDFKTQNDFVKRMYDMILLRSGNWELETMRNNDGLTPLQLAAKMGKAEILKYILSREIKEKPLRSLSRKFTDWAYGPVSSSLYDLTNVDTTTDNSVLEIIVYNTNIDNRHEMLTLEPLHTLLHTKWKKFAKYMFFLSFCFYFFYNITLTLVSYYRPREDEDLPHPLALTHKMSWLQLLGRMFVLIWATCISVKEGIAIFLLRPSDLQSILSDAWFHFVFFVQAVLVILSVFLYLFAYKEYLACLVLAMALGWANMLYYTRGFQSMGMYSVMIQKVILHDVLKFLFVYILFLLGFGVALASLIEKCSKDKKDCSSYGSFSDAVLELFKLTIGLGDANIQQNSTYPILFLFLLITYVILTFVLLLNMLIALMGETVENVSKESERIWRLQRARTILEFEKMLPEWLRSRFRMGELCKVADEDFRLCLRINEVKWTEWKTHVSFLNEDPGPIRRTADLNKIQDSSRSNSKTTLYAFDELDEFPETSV
Assay: Whole-cell recording of TRPV3 mutant L642A in HEK 293T cells
Details: 2-APB (1 mM)-evoked, –60 mV, read-out: IC50 for inhibition of TRPV3 mutant
Experimental: The WT mouse TRPV3 (mTRPV3), human TRPV3 (hTRPV3), rat TRPV1, rat TRPV2, rat TRPM8, and mouse TRPA1 cDNAs were generously provided by Dr. Feng Qin (State University of New York at Buffalo, Buffalo, USA). […] Conventional whole-cell and excised patch-clamp recording methods were used. […] As determined by the conductance tests, the solution around a patch under study was fully controlled by the application of a flow rate of 100 μl/min or greater. […]
Readout name: IC50 (nM)
Answers are plain numbers, in nM.

Enquiry: Find the measured IC50 of CCCCOc1ccc(C(=O)CCN2CCCCC2)cc1 and report it.
Return: 250

Data origin, for the record: paper PMC8112869
